Target: purified human neutrophil elastase (HNE) (Homo sapiens)
Sequence (P08246 30-247 limits assumed): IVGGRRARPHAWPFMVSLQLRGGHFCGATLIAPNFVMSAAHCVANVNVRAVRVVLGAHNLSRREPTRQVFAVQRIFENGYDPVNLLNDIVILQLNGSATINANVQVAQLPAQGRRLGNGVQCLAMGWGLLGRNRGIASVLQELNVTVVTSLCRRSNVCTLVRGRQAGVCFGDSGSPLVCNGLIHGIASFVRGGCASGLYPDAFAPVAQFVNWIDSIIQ
Assay: neutrophil elastase inhibition with chromogenic substrate MOS-AAPV-pNA
Conditions: MOS-AAPV-pNA 0.5 mM, HNE 10-20 nM, pH 7.5, 25 C; read-out: Ki^ss (HNE)
reported.metric: Ki (nM)
# value in nM; strip the unit string

Input: For the compound CC(C)(C)c1ccc(C(C)(C)C(=O)Oc2ccc(S(=O)(=O)CCCC(=O)O)cc2)cc1 [CE-1218] , what Ki is on record?
Output: 10.5
